# relative binding affinity per entry
System: estrogen receptor (rat uterine cytosol)
test name: DSSTox (NCTRER) National Center for Toxicological Research Estrogen Receptor Binding Database;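 further: ratio of estradiol IC50 over compound IC50 times 100 so estradiol equals 100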
measurement conditions: rat uterine cytosol ER competitive binding, RBA; ChemClass_ERB: Steroids With aromatic A ring; hits give high values
Results filed as inconclusive are left out.

{"columns": ["molecule", "value unit", "relative binding affinity"],
 "data": [
  ["COc1ccc2c(c1)CC[C@@H]1[C@@H]2CC[C@]2(C)[C@@H](O)[C@H](O)C[C@@H]12", "%", 0.0224],
  ["C[C@]12CC[C@@H]3c4ccc(O)cc4[C@@H](O)C[C@H]3[C@@H]1CC[C@@H]2O", "%", 0.708],
  ["C[C@]12CC[C@@H]3c4ccc(O)c(O)c4CC[C@H]3[C@@H]1CC[C@@H]2O", "%", 66.1],
  ["C[C@]12CC[C@@H]3c4ccccc4CC[C@H]3[C@@H]1CCC2=O", "%", 0.0063]
]}
